- target.desc: GLP-1 Receptor (Homo sapiens, UniProt P43220)
- Sequence (P43220 24-463, species assumed): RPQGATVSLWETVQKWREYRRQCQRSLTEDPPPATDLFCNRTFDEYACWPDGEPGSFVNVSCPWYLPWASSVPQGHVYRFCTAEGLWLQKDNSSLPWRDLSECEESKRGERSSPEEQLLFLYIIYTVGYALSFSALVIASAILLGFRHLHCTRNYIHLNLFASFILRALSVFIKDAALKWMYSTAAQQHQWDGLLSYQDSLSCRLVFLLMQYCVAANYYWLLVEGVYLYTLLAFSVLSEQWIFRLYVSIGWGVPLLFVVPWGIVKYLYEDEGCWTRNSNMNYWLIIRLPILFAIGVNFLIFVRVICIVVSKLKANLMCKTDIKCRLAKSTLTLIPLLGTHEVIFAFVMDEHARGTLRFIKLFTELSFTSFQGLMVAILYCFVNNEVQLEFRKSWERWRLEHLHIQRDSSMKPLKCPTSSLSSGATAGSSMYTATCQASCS
- measurement.description: GLP-1R agonist cAMP stimulation assay (HEK293/GLP1R/CRE-LUC cells, Cisbio cAMP dynamic 2 kit)
- Format: cell-based
- assay.setup: Table 4
property.name: EC50 (nM)
The figure you give is taken to be in nM; do not add the unit.

INSERT INTO results (compound, measured_number) VALUES
  ('CN=S(=O)(c1ccc(-n2ccn(-c3c4c(nn3-c3cc(C)c(F)c(C)c3)CCN(C(=O)c3cc5cc([C@H]6CCOC(C)(C)C6)ccc5n3[C@@]3(c5noc(=O)[nH]5)C[C@@H]3C)[C@H]4C)c2=O)cc1NC)C1CC1 (single isomer, unassigned)', 0.059),
  ('CCS(=O)(=NC)c1ccc(-n2ccn(-c3c4c(nn3-c3cc(C)c(F)c(C)c3)CCN(C(=O)c3cc5cc([C@H]6CCOC(C)(C)C6)ccc5n3[C@@]3(c5noc(=O)[nH]5)C[C@@H]3C)[C@H]4C)c2=O)c(F)c1C (single isomer, unassigned)', 0.068);

Data request, read-out EC50, for Cc1cc(-n2nc3c(c2-n2ccn(-c4ccc(S(=O)(=O)C5CC5)cc4)c2=O)[C@H](C)N(C(=O)c2cc4cc(C5CCOCC5)ccc4n2[C@@]2(c4noc(=O)[nH]4)C[C@@H]2C)CC3)cc(C)c1F [Compound C-2, reference compound]
0.043

====

Below is a list of entries, each paired with its recorded Cmax value.
- measurement.description: Rat PO PK study, Method B
- Type: in vivo, male Sprague Dawley (SD) rats
- assay.setup: male, Sprague Dawley, plasma, 100 mg/kg, 10% solutol HS 15
- Procedure: Pharmacokinetics (PK) study was conducted on male Sprague Dawley (SD) rats by oral gavage (PO). Rats in PO route (n=3) were free access to food and water. […] On the day of experiment, test article was administered via oral gavage (commonly at 10, 30, or 100 mg/kg, with dose volume as 10 mL/kg). […] Pharmiacokinetics parameters, including Cmax, and area under the curve (AUC), etc. were calculated by non-compartmental model using WinNonlin.
The figure you give is taken to be in µg/mL; do not add the unit.

Guide cases for Cmax, answers given:
INSERT INTO assay_data (compound, property_name, measured_number) VALUES
  ('CN=S(=O)(c1ccc(-n2ccn(-c3c4c(nn3-c3cc(C)c(F)c(C)c3)CCN(C(=O)c3cc5cc([C@H]6CCOC(C)(C)C6)ccc5n3[C@@]3(c5noc(=O)[nH]5)C[C@@H]3C)[C@H]4C)c2=O)c(F)c1C)C1CC1 (single isomer, unassigned)', 'Cmax', 7.69),
  ('CN=S(=O)(c1ccc(-n2ccn(-c3c4c(nn3-c3cc(C)c(F)c(C)c3)CCN(C(=O)c3cc5cc([C@H]6CCOC(C)(C)C6)ccc5n3[C@@]3(c5noc(=O)[nH]5)C[C@@H]3C)[C@H]4C)c2=O)c(F)c1)C1CC1 (single isomer, unassigned)', 'Cmax', 13.3);

Proceeding to the next compound to report its Cmax.
Data request, read-out Cmax, for Cc1cc(-n2nc3c(c2-n2ccn(-c4ccc5c(cnn5C)c4F)c2=O)[C@H](C)N(C(=O)c2cc4cc([C@H]5CCOC(C)(C)C5)ccn4c2C2(c4noc(=O)[nH]4)CC2)CC3)cc(C2CC2)c1F [Compound C-6, reference compound]
7.48

====

Below is a list of entries, each paired with its recorded Cmax value.
- measurement.description: Rat PO PK study, Method B
- Assay type: in vivo, male Sprague Dawley (SD) rats
- assay.setup: male, Sprague Dawley, plasma, 30 mg/kg, 10% solutol HS 15
The figure you give is taken to be in ng/mL; do not add the unit.

Guide cases for Cmax, answers given:
INSERT INTO measurements (compound, measured_number) VALUES
  ('Cc1cc(-n2nc3c(c2-n2ccn(-c4ccc5c(cnn5C)c4F)c2=O)[C@H](C)N(C(=O)c2cc4cc([C@H]5CCOC(C)(C)C5)ccc4n2[C@@]2(c4noc(=O)[nH]4)C[C@@H]2C)CC3)cc(C)c1F [Compound C-5, reference compound]', 1010),
  ('CN=S(=O)(c1ccc(-n2ccn(-c3c4c(nn3-c3cc(C)c(F)c(C)c3)CCN(C(=O)c3cc5cc([C@H]6CCOC(C)(C)C6)ccc5n3[C@@]3(c5noc(=O)[nH]5)C[C@@H]3C)[C@H]4C)c2=O)c(F)c1)C1CC1 (single isomer, unassigned)', 8340),
  ('CN=S(=O)(c1ccc(-n2ccn(-c3c4c(nn3-c3cc(C)c(F)c(C)c3)CCN(C(=O)c3cc5cc([C@H]6CCOC(C)(C)C6)ccc5n3[C@@]3(c5noc(=O)[nH]5)C[C@@H]3C)[C@H]4C)c2=O)c(F)c1C)C1CC1 (single isomer, unassigned)', 3910);

Data request, read-out Cmax, for Cc1cc(-n2nc3c(c2-n2ccn(-c4ccc5c(cnn5C)c4F)c2=O)[C@H](C)N(C(=O)c2cc4cc([C@H]5CCOC(C)(C)C5)ccn4c2C2(c4noc(=O)[nH]4)CC2)CC3)cc(C2CC2)c1F [Compound C-6, reference compound]
7540

====

- target.desc: GLP-1 Receptor (Homo sapiens, UniProt P43220)
- measurement.description: GLP-1R agonist cAMP stimulation assay (HEK293/GLP1R/CRE-LUC cells, Cisbio cAMP dynamic 2 kit)
- Format: cell-based
- assay.setup: Table 3, HEK293/GLP1R/CRE-LUC cells, 30 min
Below is a list of entries, each paired with its recorded pEC50 value.
Please keep in mind that pEC50 is minus log10 of the molar concentration; only the number is needed.

INSERT INTO results (compound, measured_number) VALUES
  ('CN=S(=O)(c1ccc(-n2ccn(-c3c4c(nn3-c3cc(C)c(F)c(C)c3)CCN(C(=O)c3cc5cc([C@H]6CCOC(C)(C)C6)ccc5n3[C@@]3(c5noc(=O)[nH]5)C[C@@H]3C)[C@H]4C)c2=O)c(F)c1)C1CC1 (single isomer, unassigned) [Compound 180]', 10.47);

Data request, read-out pEC50, for Cc1nnc(C2(n3c(C(=O)N4CCc5nn(-c6cc(C)c(F)c(C)c6)c(-n6ccn(-c7ccc(S8(=O)=NCCC8)cc7)c6=O)c5[C@@H]4C)cc4cc(C5CCOCC5)ccc43)CC2)o1 (single isomer, unassigned) [Compound 155]
9.00

Data request, read-out pEC50, for Cc1cc(-n2nc3c(c2-n2ccn(-c4ccc(S5(=O)=NCCC5)cc4)c2=O)[C@H](C)N(C(=O)c2cc4cc(C5CCOCC5)ccc4n2C2(c4nsc(=O)[nH]4)CC2)CC3)cc(C)c1F (single isomer, unassigned) [Compound 131]
10.30

Data request, read-out pEC50, for CN=S1(=O)CCC(Oc2ccc(-n3ccn(-c4c5c(nn4-c4cc(C)c(F)c(C)c4)CCN(C(=O)c4cc6cc(C7CCOCC7)ccc6n4[C@@]4(c6noc(=O)[nH]6)C[C@@H]4C)[C@H]5C)c3=O)c(F)c2C)CC1 (single isomer, unassigned) [Compound 232]
10.43

Data request, read-out pEC50, for Cc1cc(-n2nc3c(c2-n2ccn(-c4ccc5c(c4F)CN=S5(=O)C4CC4)c2=O)[C@H](C)N(C(=O)c2cc4cc([C@H]5CCOC(C)(C)C5)ccc4n2[C@@]2(c4noc(=O)[nH]4)C[C@@H]2C)CC3)cc(C)c1F (single isomer, unassigned) [Compound 191]
11.02

Data request, read-out pEC50, for Cc1cc(-n2nc3c(c2-n2ccn(-c4ccc(S(C)(=N)=O)cc4)c2=O)[C@H](C)N(C(=O)c2cc4cc(N5CCOCC5)ccc4n2C2(c4noc(=O)[nH]4)CC2)CC3)cc(C)c1F (stereo partly drawn) [Compound 106]
9.17

Data request, read-out pEC50, for CCS(=N)(=O)c1ccc(-n2ccn(-c3c4c(nn3-c3cc(C)c(F)c(C)c3)CCN(C(=O)c3cc5cc(C6CCOCC6)ccc5n3[C@@]3(c5noc(=O)[nH]5)C[C@@H]3C)[C@H]4C)c2=O)cn1 (single isomer, unassigned) [Compound 141]
10.66

Data request, read-out pEC50, for CN=S(=O)(c1cc(F)c(-n2ccn(-c3c4c(nn3-c3cc(C)c(F)c(C)c3)CCN(C(=O)c3cc5cc([C@H]6CCOC(C)(C)C6)ccc5n3[C@@]3(c5noc(=O)[nH]5)C[C@@H]3C)[C@H]4C)c2=O)cc1C)C1CC1 (single isomer, unassigned) [Compound 193]
10.00

Data request, read-out pEC50, for CCS(=N)(=O)c1ccc(-n2ccn(-c3c4c(nn3-c3cc(C)c(F)c(C)c3)CCN(C(=O)c3cc5cc(C6CCOCC6)ccc5n3[C@@]3(c5noc(=O)[nH]5)C[C@@H]3C)[C@H]4C)c2=O)c(F)c1 (single isomer, unassigned) [Compound 138]
12.00

Data request, read-out pEC50, for CN=S(=O)(c1ccc(-n2ccn(-c3c4c(nn3-c3cc(C)c(F)c(C)c3)CCN(C(=O)c3cc5cc([C@H]6CCOC(C)(C)C6)ccc5n3[C@@]3(c5noc(=O)[nH]5)C[C@@H]3C)[C@H]4C)c2=O)cc1NC)C1CC1 (single isomer, unassigned) [Compound 218]
10.08

Data request, read-out pEC50, for Cc1cc(-n2nc3c(c2-n2ccn(-c4cc5c(cc4F)S(C)(=O)=NC5)c2=O)[C@H](C)N(C(=O)c2cc4cc([C@H]5CCOC(C)(C)C5)ccc4n2[C@@]2(c4noc(=O)[nH]4)C[C@@H]2C)CC3)cc(C)c1F (single isomer, unassigned) [Compound 200]
11.00

Data request, read-out pEC50, for Cc1cc(-n2nc3c(c2-n2ccn(-c4ccc5c(c4)CCS(C)(=O)=N5)c2=O)[C@H](C)N(C(=O)c2cc4cc([C@H]5CCOC(C)(C)C5)ccc4n2[C@@]2(c4noc(=O)[nH]4)C[C@@H]2C)CC3)cc(C)c1F (single isomer, unassigned) [Compound 229]
10.38

Data request, read-out pEC50, for CC1=Cc2c(ccc(-n3ccn(-c4c5c(nn4-c4cc(C)c(F)c(C)c4)CCN(C(=O)c4cc6cc([C@H]7CCOC(C)(C)C7)ccc6n4[C@@]4(c6noc(=O)[nH]6)C[C@@H]4C)[C@H]5C)c3=O)c2F)S(=O)(C2CC2)=N1 (single isomer, unassigned) [Compound 211]
10.39

Data request, read-out pEC50, for CN=S(=O)(c1ccc(-n2ccn(-c3c4c(nn3-c3ccc(F)c(C5CC5)c3)CCN(C(=O)c3cc5cc([C@H]6CCOC(C)(C)C6)ccc5n3[C@@]3(c5noc(=O)[nH]5)C[C@@H]3C)[C@H]4C)c2=O)c(F)c1C)C1CC1 (single isomer, unassigned) [Compound 217]
9.70

Data request, read-out pEC50, for CN=S(=O)(c1ccc(-n2ccn(-c3c4c(nn3-c3cc(C)c(F)c(C)c3)CCN(C(=O)c3cc5cc([C@H]6CCOC(C)(C)C6)ccc5n3[C@@]3(c5noc(=O)[nH]5)C[C@@H]3C)[C@H]4C)c2=O)c(Cl)c1)C1CC1 (single isomer, unassigned) [Compound 204]
10.41
